So I've got a bunch of variants here, and I need their polymerase ribozyme fitness (log ratio) values.
B1: TPR t1 (parent)
chain: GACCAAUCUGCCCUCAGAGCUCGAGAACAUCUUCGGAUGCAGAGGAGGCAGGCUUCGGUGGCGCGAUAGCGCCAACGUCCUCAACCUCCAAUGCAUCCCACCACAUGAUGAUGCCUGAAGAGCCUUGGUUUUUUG

# Variants of: B1
# ASSAY_INFO: polymerase ribozyme fitness, log enrichment relative to wild type (log ratio); higher = more active; in vitro selection for triplet polymerase activity
Give bare numbers.

MUTANT_NAME	REPORTED_RESULT
C3A A83C C97U G110A	-3.93
G47U U87G U129A	-4.44
A2U G57C C82U C98U	-3.78
U9C C98G	-5.05
G48C A83U A111C A118C	-0.0367
C89U G110U A121G	-1.62
A29U U32C G61C C70G C98A C114U	-5.96
C13A A27C G36A	-4.52

Could I get polymerase ribozyme fitness (log ratio) for every one of these entries?
1. C34U C79U U130C
2. U78C U131C
3. U32C G44U U92G A118U U133A
4. U131C
5. C28G C73U

-5.4
-0.936
-3.79
0.237
-2.15

Could I get polymerase ribozyme fitness (log ratio) for every one of these entries?
1. C53U G69U C88G G110C C115A A121C C124G
2. G61A U78C C86A A95C
3. A37U U106G C123G
4. C56U C73G G122A U130A
5. C49G G51C A119U U133C
6. C53U C123G
7. A50U C124A
8. U7C A66U U106C

1. -2.79
2. -1.85
3. 0.0565
4. -2.91
5. -3.18
6. 1.61
7. 0.575
8. -1.58

Which value of polymerase ribozyme fitness (log ratio) has been reported for G71U C124G in the records?
1.72
